# experimental_target: Protein phosphatase EYA2 (Homo sapiens) (UniProt O00167)
# Sequence (O00167 whole entry, looked up): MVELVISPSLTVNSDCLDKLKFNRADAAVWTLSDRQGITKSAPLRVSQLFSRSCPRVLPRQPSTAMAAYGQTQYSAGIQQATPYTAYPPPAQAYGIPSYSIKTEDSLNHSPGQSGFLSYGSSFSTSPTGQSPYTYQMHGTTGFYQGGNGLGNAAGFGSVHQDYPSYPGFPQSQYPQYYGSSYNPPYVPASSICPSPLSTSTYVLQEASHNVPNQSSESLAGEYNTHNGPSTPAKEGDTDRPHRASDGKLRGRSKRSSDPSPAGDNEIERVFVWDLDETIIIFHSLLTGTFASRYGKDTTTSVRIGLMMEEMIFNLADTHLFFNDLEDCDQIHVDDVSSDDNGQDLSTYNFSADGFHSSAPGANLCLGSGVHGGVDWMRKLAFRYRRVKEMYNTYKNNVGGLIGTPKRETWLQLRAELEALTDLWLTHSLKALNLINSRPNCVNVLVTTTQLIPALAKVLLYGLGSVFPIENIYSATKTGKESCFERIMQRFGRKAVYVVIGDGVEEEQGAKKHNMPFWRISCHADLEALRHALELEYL
# procedure_text: qHTS for Inhibitors of the Phosphatase Activity of Eya2: Confirmatory Assay for Cherry-picked Compounds; also: nearly all actives have a fitted effect of over 65% in size
# assay_setup: purified EYA2 phosphatase activity, qHTS confirmation; series mostly up to 46.1 µM
Hit rate of the full screen: of about 1,300 compounds, about 460 (35%) were called active. Roughly 39% stayed inconclusive and do not appear here. Calls follow the shape of the dose curve; as a rule, active = well fitted inhibition curve with a large enough effect; inconclusive = small, poorly fitted or top-dose-only effect; inactive = flat fitted curve, though single readings scatter. Some of the results follow.
Classes used: yes (1) = active, no (0) = inactive

compound	group
CCOC(=O)N1CCC(NC(=O)c2cc3c(-c4ccccc4F)nn(C)c3s2)CC1	no (0)
COc1ccc(N=C2SC(C(=O)N3CCN(c4ccc([N+](=O)[O-])cc4)CC3)CC(=O)N2C)cc1 (centres undefined)	no (0)
O=C(O)c1ccccc1-c1ccccc1C(=O)Nc1ccc2c(c1)[nH]c(=O)c1ccccc12	yes (1)
O=C1NC(=O)/C(=C\c2ccccc2OCc2cccc([N+](=O)[O-])c2)N1	no (0)
Nc1nc2c(c(=O)[nH]1)C(c1cccc3ccccc13)C1=C(N2)c2ccccc2C1=O (centres undefined)	yes (1)
CCOc1ccc(C2C3=C(Nc4nc(N)[nH]c(=O)c42)c2ccccc2C3=O)cc1 (centres undefined)	yes (1)
Cc1cc(/C=C2\C(=N)N3N=C(CC(=O)N4CCOCC4)SC3=NC2=O)c(C)n1Cc1ccccc1	no (0)
Cc1cc(NC(=O)CSc2nnnn2-c2ccccc2C)no1	no (0)
Cc1cc(C)c(NC(=O)CSc2ccc(-c3ccccn3)nn2)c(C)c1	yes (1)
